- Test description: qHTS RealTime-Glo MT Cell Viability Assay in HEK293 cells - 24 hour (AID 1224886); also: nearly all actives have a fitted effect of over 50% in size; also: potency is read from the fitted curve at half-maximal effect
- Condition notes: RealTime-Glo luminescence; series mostly up to 76.8 µM
Inconclusive results are not listed. Calls of active or inactive are those of the source. Calls follow the shape of the dose curve; as a rule, active = well fitted cell-killing curve with a large enough effect in the repeat runs; inconclusive = weak or mixed curves, or effect the other way; inactive = flat fitted curve, though single readings scatter.
Readout name: Potency

Some compounds with recorded Potency:
[
  {
    "Compound": "CCn1cc(C(=O)O)c(=O)c2cc(F)c(N3CCNC(C)C3)c(F)c21 (stereo unspecified)",
    "Potency": "inactive"
  },
  {
    "Compound": "NC12CC3CC(CC(C3)C1)C2",
    "Potency": "inactive"
  },
  {
    "Compound": "CCc1cc(C(C)(C)C)c(O)c(C(C)(C)C)c1",
    "Potency": "inactive"
  },
  {
    "Compound": "Cc1c(O)cccc1C(=O)N[C@@H](CSc1ccccc1)[C@H](O)CN1C[C@H]2CCCC[C@H]2C[C@H]1C(=O)NC(C)(C)C",
    "Potency": "21.3 µM (active)"
  }
]

Input: Given O=C(O)c1cc(Cl)cc(Cl)c1 , state its recorded Potency.
Output: inactive

Input: Given c1ccc2c(c1)CCCC2C1=NCCN1 (stereo unspecified) , state its recorded Potency.
Output: inactive
